Source: ChEMBL document CHEMBL1938329

# systemName: Casein kinase I isoform delta (Homo sapiens, UniProt P48730)
# Sequence (P48730 whole entry, canonical isoform): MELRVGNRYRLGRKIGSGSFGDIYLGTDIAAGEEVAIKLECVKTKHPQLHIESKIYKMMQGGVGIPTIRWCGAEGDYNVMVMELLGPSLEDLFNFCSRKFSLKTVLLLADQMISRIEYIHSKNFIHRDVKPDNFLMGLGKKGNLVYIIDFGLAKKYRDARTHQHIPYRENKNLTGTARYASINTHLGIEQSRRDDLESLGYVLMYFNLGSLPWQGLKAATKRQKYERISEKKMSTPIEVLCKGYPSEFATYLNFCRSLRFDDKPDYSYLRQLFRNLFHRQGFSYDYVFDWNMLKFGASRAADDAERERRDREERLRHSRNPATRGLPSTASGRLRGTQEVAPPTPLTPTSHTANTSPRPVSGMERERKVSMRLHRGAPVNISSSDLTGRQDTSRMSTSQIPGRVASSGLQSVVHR
# testName: Inhibition of CK1delta
observationType: IC50
Include the unit after the number when you answer.

// lookup IC50 for COc1cc(C)c2nc3[nH]nc(C)c3c(N3CCNCC3)c2c1 320 nM

----------
# testName: Drug uptake in CD rat brain at 30 mg/kg, po after 1 hr
# Type: ADME, organism-based
# Set-up: dose 30 mg/kg, route oral
# experimentalSetup: read-out: Drug uptake
observationType: concentration at 1 h (ng/g)
Answers are plain numbers, in ng/g.

// lookup concentration at 1 h for COc1cc(C)c2nc3[nH]nc(C)c3c(N3CCN(C(N)=O)[C@@H](C)C3)c2c1 27

----------
# systemName: Phosphodiesterase 6
# testName: Inhibition of recombinant human PDE6 using [3H]cAMP as substrate by scintillation proximity assay
# Assay type: protein assay
Assign Ki to each entry below.
Numbers only, in µM.

Below are worked cases with known answers.
compound	Ki (µM)
COc1cc(C)c2nc3[nH]nc(C)c3c(NCc3ccncc3)c2c1	0.211
COc1cc(C)c2nc3[nH]nc(C)c3c(NCC3CCNCC3)c2c1	14.782
COc1cc(C)c2nc3[nH]nc(C)c3c(NCc3ccccn3)c2c1	1.811
COc1cc(C)c2nc3[nH]nc(C)c3c(NCC3CNCCO3)c2c1 (stereo unspecified)	13.882
COc1cc(C)c2nc3[nH]nc(C)c3c(N(C)C3CCOCC3)c2c1	7.383

Here is the next item to consider.
// lookup Ki for COc1cc(C)c2nc3[nH]nc(C)c3c(NC3CCOCC3)c2c1 0.278

----------
# testName: Ratio of drug level in brain to plasma in rat at 10 mg/kg, po at 6 hrs
# Type: ADME, organism-based
# Design: dose 10 mg/kg, route oral
# experimentalSetup: read-out: BPR
Assign Kp at 6 h to each entry below.
Answers are plain numbers.

Below are worked cases with known answers.
sampleSmiles	observationType	reportedValue
COc1cc(C)c2nc3[nH]nc(C)c3c(N3CCNCC3)c2c1	Kp at 6 h	1.2
COc1cc(C)c2nc3[nH]nc(C)c3c(N3CCCOCC3)c2c1	Kp at 6 h	0.3

// lookup Kp at 6 h for COc1cc(C)c2nc3[nH]nc(C)c3c(NC3CCOCC3)c2c1 0.7

----------
# systemName: cGMP-specific 3',5'-cyclic phosphodiesterase (Homo sapiens)
# testName: Inhibition of recombinant human PDE5A using [3H]cAMP as substrate by scintillation proximity assay
observationType: pKi
One number for each entry, as −log10 of the molar value.

// lookup pKi for COc1cc(C)c2nc3[nH]nc(C)c3c(NC3CCOCC3)c2c1 4.76

----------
# testName: Efflux ratio of permeability in human Caco2 cells
# Format: ADME, cell-based
# experimentalSetup: Caco-2
observationType: efflux ratio

// lookup efflux ratio for COc1cc(C)c2nc3[nH]nc(C)c3c(NC3CCOCC3)c2c1 0.7

----------
# systemName: Phosphodiesterase 6
# testName: Inhibition of recombinant human PDE6 using [3H]cAMP as substrate by scintillation proximity assay
# Assay type: protein assay
observationType: Ki (nM)
Answers are plain numbers, in nM.

molecule	observationType	reportedValue
COc1cc(C)c2nc3[nH]nc(C)c3c(NCC3CCOCC3)c2c1	Ki	697
COc1cc(C)c2nc3[nH]nc(C)c3c(NCCc3ccncc3)c2c1	Ki	554

// lookup Ki for COc1cc(C)c2nc3[nH]nc(C)c3c(NCC3CCCCO3)c2c1 (centres undefined) 843

----------
# testName: AUC in dog at 2 mg/kg, po
# Assay type: ADME, organism-based, Canis lupus familiaris
# Set-up: dose 2 mg/kg, route oral
# experimentalSetup: plasma
observationType: AUC
Include the unit after the number when you answer.

// lookup AUC for COc1cc(C)c2nc3[nH]nc(C)c3c(NC3CCOCC3)c2c1 12.5 µM·h

----------
# testName: Plasma protein binding in rat
# Assay type: ADME, cell-free
# experimentalSetup: read-out: PPB (converted)
observationType: fraction unbound

Would you be so kind as to report fraction unbound for each listed record?
1. COc1cc(C)c2nc3[nH]nc(C)c3c(NC3CCOCC3)c2c1
2. COc1cc(C)c2nc3[nH]nc(C)c3c(N3CCNCC3)c2c1

[0.07, 0.16]

----------
# testName: Clearance in cebus monkey hepatocytes assessed per million of cells
# Format: ADME, cell-based, Hepatocyte
# experimentalSetup: cebus capucinus, read-out: CLH
observationType: hepatocyte CLint (µL/min/1e6 cells)
Numbers only, in µL/min/1e6 cells.

// lookup hepatocyte CLint for COc1cc(C)c2nc3[nH]nc(C)c3c(NC3CCOCC3)c2c1 54

----------
# systemName: High affinity cGMP-specific 3',5'-cyclic phosphodiesterase 9A (Homo sapiens)
# Sequence (O76083 whole entry): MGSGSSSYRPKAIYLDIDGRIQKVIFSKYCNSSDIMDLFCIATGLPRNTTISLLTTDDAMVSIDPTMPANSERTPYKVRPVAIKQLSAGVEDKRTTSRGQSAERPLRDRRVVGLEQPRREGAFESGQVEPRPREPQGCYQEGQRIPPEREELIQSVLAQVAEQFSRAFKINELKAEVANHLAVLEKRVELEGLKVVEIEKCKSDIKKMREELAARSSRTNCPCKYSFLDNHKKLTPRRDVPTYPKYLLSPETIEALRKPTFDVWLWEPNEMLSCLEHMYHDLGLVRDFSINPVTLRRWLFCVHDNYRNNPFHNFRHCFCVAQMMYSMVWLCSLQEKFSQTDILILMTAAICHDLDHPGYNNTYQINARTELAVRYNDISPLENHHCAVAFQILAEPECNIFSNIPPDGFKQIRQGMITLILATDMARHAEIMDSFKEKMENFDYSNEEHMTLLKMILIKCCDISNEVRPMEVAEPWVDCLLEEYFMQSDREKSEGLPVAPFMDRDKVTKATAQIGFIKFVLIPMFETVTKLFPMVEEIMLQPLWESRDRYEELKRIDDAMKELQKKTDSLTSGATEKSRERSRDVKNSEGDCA
# testName: Inhibition of recombinant human PDE9 using [3H]cAMP as substrate by scintillation proximity assay
pKi: −log10 of the molar value.
observationType: pKi

Would you be so kind as to report pKi for each listed record?
1. COc1cc(C)c2nc3[nH]nc(C)c3c(N3CCNCC3)c2c1
2. COc1cc(C)c2nc3[nH]nc(C)c3c(NC3CCOCC3)c2c1

1. ≤ 6.11
2. ≤ 5.32

----------
# testName: AUC (0 to 6 hrs) in rat at 10 mg/kg, po
# Format: ADME, organism-based
# Set-up: time < 6 hr, dose 10 mg/kg, route oral
# experimentalSetup: plasma
Each entry gets 0 if its AUC(0-t) at 6 h stays under 10 µM·h, and 1 if its AUC(0-t) at 6 h is 10 µM·h or above.

sampleSmiles	answerLabel
Cc1cc(Cl)cc2c(N3CCNCC3)c3c(C)n[nH]c3nc12	0

Is the recorded value of AUC(0-t) at 6 h equal to or greater than 10 µM·h for this molecule? COc1cc(C)c2nc3[nH]nc(C)c3c(N3CCN(C(N)=O)[C@@H](C)C3)c2c1 0

----------
# systemName: cAMP and cAMP-inhibited cGMP 3',5'-cyclic phosphodiesterase 10A (Homo sapiens, UniProt Q9Y233)
# Sequence (Q9Y233 whole entry): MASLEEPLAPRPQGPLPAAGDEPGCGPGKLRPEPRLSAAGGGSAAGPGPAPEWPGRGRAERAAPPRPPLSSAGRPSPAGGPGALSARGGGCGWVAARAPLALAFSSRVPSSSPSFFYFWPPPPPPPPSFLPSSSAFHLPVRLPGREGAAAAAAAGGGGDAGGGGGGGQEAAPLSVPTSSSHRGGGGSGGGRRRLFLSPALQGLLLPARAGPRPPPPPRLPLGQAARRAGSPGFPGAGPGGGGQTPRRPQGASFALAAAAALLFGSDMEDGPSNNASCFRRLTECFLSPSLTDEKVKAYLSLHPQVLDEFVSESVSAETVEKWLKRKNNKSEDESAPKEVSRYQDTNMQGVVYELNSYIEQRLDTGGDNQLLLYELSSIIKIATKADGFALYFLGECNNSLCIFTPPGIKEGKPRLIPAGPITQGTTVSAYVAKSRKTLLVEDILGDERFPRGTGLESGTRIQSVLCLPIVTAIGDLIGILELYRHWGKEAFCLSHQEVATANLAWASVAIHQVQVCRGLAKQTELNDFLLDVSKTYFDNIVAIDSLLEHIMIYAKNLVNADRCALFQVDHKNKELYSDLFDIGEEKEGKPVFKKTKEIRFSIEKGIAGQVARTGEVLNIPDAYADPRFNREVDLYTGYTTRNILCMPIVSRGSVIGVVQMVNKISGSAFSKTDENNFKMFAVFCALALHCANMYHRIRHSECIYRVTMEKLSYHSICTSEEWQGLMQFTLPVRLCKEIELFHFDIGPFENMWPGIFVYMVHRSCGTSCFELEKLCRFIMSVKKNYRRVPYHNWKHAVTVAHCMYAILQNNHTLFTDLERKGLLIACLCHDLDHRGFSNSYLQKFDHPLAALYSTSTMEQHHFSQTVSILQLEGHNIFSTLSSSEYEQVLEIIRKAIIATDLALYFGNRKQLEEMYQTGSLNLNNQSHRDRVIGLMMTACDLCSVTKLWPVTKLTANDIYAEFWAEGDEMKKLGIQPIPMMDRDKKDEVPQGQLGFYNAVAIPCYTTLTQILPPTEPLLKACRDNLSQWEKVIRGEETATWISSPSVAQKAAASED
# testName: Inhibition of recombinant human PDE10A using [3H]cAMP as substrate by scintillation proximity assay
Assign pKi to each entry below.
One number for each entry, as −log10 of the molar value.

sampleSmiles	pKi
COc1cc(C)c2nc3[nH]nc(C)c3c(NC3CCOCC3)c2c1	7.92

Would you be so kind as to report pKi for each listed record?
1. COc1cc(C)c2nc3[nH]nc(C)c3c(NCCC3CCOCC3)c2c1
2. COc1cc(C)c2nc3[nH]nc(C)c3c(N3CCC(N)CC3)c2c1
3. COc1cc(C)c2nc3[nH]nc(C)c3c(NCC3CCNCC3)c2c1
4. COc1cc(C)c2nc3[nH]nc(C)c3c(OC3CCOCC3)c2c1
5. Cc1cc(Cl)cc2c(N3CCNCC3)c3c(C)n[nH]c3nc12
6. COc1cc(C)c2nc3[nH]nc(C)c3c(N3CCC(O)CC3)c2c1
7. COc1cc(C)c2nc3[nH]nc(C)c3c(NCc3ccccn3)c2c1

1: 6.39; 2: 9.00; 3: 7.82; 4: 8.51; 5: 7.46; 6: 7.85; 7: 8.22

----------
# testName: Clearance in rat hepatocytes assessed per million of cells
# Format: ADME, cell-based, Hepatocyte
# experimentalSetup: read-out: CLH
observationType: hepatocyte CLint

// lookup hepatocyte CLint for COc1cc(C)c2nc3[nH]nc(C)c3c(NC3CCOCC3)c2c1 2.9 µL/min/1e6 cells

----------
# systemName: cAMP and cAMP-inhibited cGMP 3',5'-cyclic phosphodiesterase 10A (Homo sapiens)
# testName: Inhibition of recombinant human PDE10A using [3H]cAMP as substrate by scintillation proximity assay
observationType: Ki (nM)
Answers are plain numbers, in nM.

Below are worked cases with known answers.
molecule	systemName	unitText	reportedValue
Cc1n[nH]c2nc3ccccc3c(N3CCNCC3)c12	cAMP and cAMP-inhibited cGMP 3',5'-cyclic phosphodiesterase 10A (Homo sapiens)	nM	550
COc1cc(C)c2nc3[nH]nc(C)c3c(NCc3ccncc3)c2c1	cAMP and cAMP-inhibited cGMP 3',5'-cyclic phosphodiesterase 10A (Homo sapiens)	nM	0.6
Cc1n[nH]c2nc3ccc(Cl)cc3c(N3CCNCC3)c12	cAMP and cAMP-inhibited cGMP 3',5'-cyclic phosphodiesterase 10A (Homo sapiens)	nM	419
COc1cc(C)c2nc3[nH]nc(C)c3c(NCC3CCCCO3)c2c1 (configuration not stated)	cAMP and cAMP-inhibited cGMP 3',5'-cyclic phosphodiesterase 10A (Homo sapiens)	nM	130
COc1cc(C)c2nc3[nH]nc(C)c3c(N3CCOC(CO)C3)c2c1 (racemic)	cAMP and cAMP-inhibited cGMP 3',5'-cyclic phosphodiesterase 10A (Homo sapiens)	nM	9.6

Would you be so kind as to report Ki for each listed record?
1. COc1cc(C)c2nc3[nH]nc(C)c3c(N3CCC(CN)CC3)c2c1
2. COc1cc(C)c2nc3[nH]nc(C)c3c(N3CCOCC3)c2c1
3. COc1cc(C)c2nc3[nH]nc(C)c3c(N3CCC(C(N)=O)CC3)c2c1
4. COc1cc(C)c2nc3[nH]nc(C)c3c(N3CCCOCC3)c2c1

[0.5, 23, 3, 3.6]

Would you be so kind as to report Ki for each listed record?
1. COc1cc(C)c2nc3[nH]nc(C)c3c(NCCc3ccncc3)c2c1
2. COc1cc(C)c2nc3[nH]nc(C)c3c(N3CCC(NC(N)=O)CC3)c2c1

1. 70
2. 27
